I'd appreciate it if you could supply EC50 values for the items below.
biological target: G-protein coupled receptor homolog US28 (Human cytomegalovirus (strain AD169) (HHV-5) (Human herpesvirus 5), UniProt P69332); assay: Effective concentration against US28-mediated inositol phosphate production in COS-7 cells
Sequence (P69332 whole entry): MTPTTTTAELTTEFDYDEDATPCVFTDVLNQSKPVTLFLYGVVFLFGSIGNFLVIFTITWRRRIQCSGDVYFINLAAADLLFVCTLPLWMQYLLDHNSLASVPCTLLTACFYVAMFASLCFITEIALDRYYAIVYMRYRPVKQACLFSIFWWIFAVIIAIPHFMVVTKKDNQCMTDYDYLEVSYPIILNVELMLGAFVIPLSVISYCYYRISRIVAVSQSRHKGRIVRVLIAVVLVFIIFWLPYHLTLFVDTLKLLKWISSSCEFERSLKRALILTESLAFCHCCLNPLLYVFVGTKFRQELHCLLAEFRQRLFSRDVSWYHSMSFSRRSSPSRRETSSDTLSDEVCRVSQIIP

Consider the worked cases shown below.
N#CC(CCCN1CC=C(c2ccc(Cl)cc2)CC1)(c1ccccc1)c1ccccc1: > 100 µM
CCOC(=O)C1CCN(CCCC(C#N)(c2ccccc2)c2ccccc2)CC1: > 100 µM
CC1(O)CCN(CCCC(C#N)(c2ccccc2)c2ccccc2)CC1: > 100 µM
OC1(c2ccc(Cl)cc2)CCN(CCCC(c2ccccc2)c2ccccc2)CC1: 4.2 µM
CCCCC1(O)CCN(CCCC(C#N)(c2ccccc2)c2ccccc2)CC1: > 100 µM

I'm hoping you can list EC50 for every compound here, please.
1. N#CC(CCCN1CCC(O)(c2ccccc2)CC1)(c1ccccc1)c1ccccc1
2. N#CC(CCCN1CCC(C(N)=O)CC1)(c1ccccc1)c1ccccc1

Output:
28.2 µM
> 100 µM
